Attribution: patent US20240116985A1

assay: CHI Log D procedure; assay type: physicochemical; details: pH 7.4
Entries and their CHI Log D
The answer should be a number; do not append a unit.

Field: example entries. Status: answers known.
# input I would be grateful if you could share the reported CHI Log D for CC(=O)N[C@@H](Cc1ccccc1)C(=O)N[C@@H](CC(=O)O)C(=O)N[C@@H](C)C(=O)N[C@]1(C)CCCCCCC=CCOC(=O)N2CC[C@@](C(=O)N[C@@H](CCC(=O)O)C(=O)N[C@@H](Cc3c[nH]c4ccccc34)C(=O)N[C@@H](CCC(N)=O)C(N)=O)(C2)NC(=O)[C@H](C(C)C)NC(=O)[C@H](Cc2ccccc2)NC(=O)[C@H](C)NC(=O)[C@H](C)NC(=O)[C@H](CC(=O)O)NC(=O)[C@H](CC(=O)O)NC1=O (single isomer, unassigned) .
# output 0.827

# input Need CHI Log D, item CC(=O)N1CCC[C@]12CC=CCCCC1(CCCC=CCCCCCC[C@@](C)(C(=O)N[C@@H](Cc3ccsc3)C(=O)N[C@@H](Cc3csc4ccccc34)C(=O)N[C@@H](CCC(N)=O)C(N)=O)NC(=O)[C@H](CC(N)=O)NC(=O)[C@H](Cc3ccccc3)NC(=O)[C@H](C)NC(=O)[C@H](C)NC(=O)[C@H](CCC(=O)O)NC(=O)[C@H](CC(=O)O)NC1=O)NC(=O)[C@H](C)NC(=O)[C@H](CC(=O)O)NC2=O (stereo partly shown) [I-519]
# output 2.004

# input Item under review: CC(=O)N1CCC[C@]12CC=CCCCC1(CCCC=CCCCCCC[C@@](C)(C(=O)N[C@@H](Cc3ccccc3)C(=O)N[C@@H](Cc3c[nH]c4ccc(C5CC5)cc34)C(=O)N[C@@H](CCC(N)=O)C(N)=O)NC(=O)[C@H](C(C)C)NC(=O)[C@H](Cc3ccccc3)NC(=O)[C@H](C)NC(=O)[C@H](C)NC(=O)[C@H](CCC(=O)O)NC(=O)[C@H](CC(=O)O)NC1=O)NC(=O)[C@H](C)NC(=O)[C@H](CC(=O)O)NC2=O (stereo partly shown) [I-170] . Reported CHI Log D?
# output 2.138

---
# input Give its CHI Log D value. Item: CC(=O)N1CCC[C@]12CC=CCCCC1(CCCC=CCCCCCC[C@@](C)(C(=O)N[C@@H](Cc3ccsc3)C(=O)N[C@@H](Cc3csc4ccccc34)C(N)=O)NC(=O)[C@H](CC(N)=O)NC(=O)[C@H](Cc3ccccc3)NC(=O)[C@H](C)NC(=O)[C@H](C)NC(=O)[C@H](CCC(=O)O)NC(=O)[C@H](CC(=O)O)NC1=O)NC(=O)[C@H](CC(C)C)NC(=O)[C@H](CC(=O)O)NC2=O (stereo partly shown) [I-716]
# output 2.622

* * *

# CHI Log D listing for each entry below
test: CHI Log D procedure; format: physicochemical; conditions: pH 7.4
Keep the answer to the number alone.

# input May I ask what CHI Log D has been recorded for CC(=O)N1CCC[C@]12CC=CCCCC1(CCCC=CCCCOC(=O)N3CC[C@@](C(=O)N[C@@H](Cc4ccsc4)C(=O)N[C@@H](Cc4csc5ccccc45)C(=O)N[C@@H](CC(C)C)C(N)=O)(C3)NC(=O)[C@H](CC(N)=O)NC(=O)[C@H](Cc3ccccc3)NC(=O)[C@H](C)NC(=O)[C@H](C)NC(=O)[C@H](CN(CC(=O)O)CC(F)(F)F)NC(=O)[C@H](CC(=O)O)NC1=O)NC(=O)[C@H](CC(C)(C)C)NC(=O)[C@H](CC(=O)O)NC2=O (stereo partly shown) [I-947] ?
# output 2.271

# input // CHI Log D lookup, key: CCCC[C@@H]1NC(=O)[C@H](CC(=O)O)NC(=O)C2(CCCC=CCCCCCC[C@@](C)(C(=O)N[C@@H](Cc3ccccc3)C(=O)N[C@@H](Cc3c[nH]c4ccccc34)C(=O)N[C@@H](CCC(N)=O)C(N)=O)NC(=O)[C@H](C(C)C)NC(=O)[C@H](Cc3ccccc3)NC(=O)[C@H](C)NC(=O)[C@H](C)NC1=O)CCCC=CC[C@]1(CCCN1C(C)=O)C(=O)N[C@@H](CC(=O)O)C(=O)N[C@@H](C)C(=O)N2 (single isomer, unassigned) [I-139]
# output 2.834

# input Tell me the measured CHI Log D of CC[C@H](C)[C@@H]1NC(=O)C[C@H](C(=O)O)NC(=O)[C@]2(CC=CCCCC3(CCCC=CCCCCCC[C@@](C)(C(=O)N[C@@H](Cc4ccccc4)C(=O)N[C@@H](Cc4csc5ccccc45)C(=O)N[C@@H](CCC(N)=O)C(N)=O)NC(=O)[C@H](CCC(N)=O)NC(=O)[C@H](Cc4ccccc4)NC(=O)[C@H](C)NC(=O)[C@H](C)NC(=O)[C@H](CCC(=O)O)NC(=O)[C@H](CC(=O)O)NC3=O)NC1=O)CCCN2C(C)=O (stereo partly shown) [I-668] , please.
# output 2.199

# input Name the reported CHI Log D value associated with the compound CC(=O)N1CCC[C@]12CC=CCCCC1(CCCC=CCCCOC(=O)N3CC[C@@](C(=O)N[C@@H](Cc4ccsc4)C(=O)N[C@@H](Cc4csc5ccccc45)C(=O)N[C@@H](Cc4c[nH]cn4)C(N)=O)(C3)NC(=O)[C@H](CCC(N)=O)NC(=O)[C@H](Cc3ccccc3)NC(=O)[C@H](C)NC(=O)[C@H](C)NC(=O)[C@H](CC(=O)O)NC(=O)[C@H](CC(=O)O)NC1=O)NC(=O)[C@H](CC(C)(C)C)NC(=O)[C@H](CC(=O)O)NC2=O (stereo partly shown) [I-772]
# output 2.069

New cases:
# input Which value of CHI Log D has been reported for CC(=O)N1CCC[C@]12CC=CCCCC1(CCCC=CCCCOC(=O)N3CC[C@@](C(=O)N[C@@H](Cc4ccsc4)C(=O)N[C@@H](Cc4csc5ccccc45)C(=O)N[C@H](C(N)=O)[C@@H](C)O)(C3)NC(=O)[C@H](CC(N)=O)NC(=O)[C@H](Cc3ccccc3)NC(=O)[C@H](C)NC(=O)[C@H](C)NC(=O)[C@H](CN(CC(=O)O)CC(F)(F)F)NC(=O)[C@H](CC(=O)O)NC1=O)NC(=O)[C@H](CC(C)(C)C)NC(=O)[C@H](CC(=O)O)NC2=O (stereo partly shown) [I-943] in the records?
# output 2.071

# input Could you tell me which CHI Log D is on file for CC(=O)N1CCC[C@]12CC=CCCCC1(CCCC=CCCCCCC[C@@](C)(C(=O)N[C@@H](Cc3ccsc3)C(=O)N[C@@H](Cc3csc4ccccc34)C(=O)N[C@@H](CCC(N)=O)C(N)=O)NC(=O)[C@H](CC(N)=O)NC(=O)[C@H](Cc3ccccc3)NC(=O)[C@H](C)NC(=O)[C@H](C)NC(=O)[C@H](CC(=O)O)NC(=O)[C@H](CC(=O)O)NC1=O)NC(=O)[C@H](CC(C)C)NC(=O)[C@H](CC(=O)O)NC2=O (stereo partly shown) [I-680] ?
# output 2.215

# input Any idea what its CHI Log D is? The compound is CC[C@@H]1NC(=O)[C@H](CC(=O)O)NC(=O)[C@]2(CC=CCCCC3(CCCC=CCCCCCC[C@@](C)(C(=O)N[C@@H](Cc4ccccc4)C(=O)N[C@@H](Cc4csc5ccccc45)C(=O)N[C@@H](Cc4c[nH]cn4)C(N)=O)NC(=O)[C@H](CCC(N)=O)NC(=O)[C@H](Cc4ccccc4)NC(=O)[C@H](C)NC(=O)[C@H](C)NC(=O)[C@H](CCC(=O)O)NC(=O)[C@H](CC(=O)O)NC3=O)NC1=O)CCCN2C(C)=O (stereo partly shown) [I-571]
# output 2.245
